Experiment: Plasma and urine pharmacokinetics (HPLC-UV) in patients after 60-min IV infusion
Assay type: in vivo, human
Settings: human, plasma, intravenous, 4 mg, patient no. 6; 4 mg m-2; day 1 course 1; observed value
ASSAY METRIC: Cmax (ng/mL)
Respond numerically; units are ng/mL and should not be typed.

Ask: Supply Cmax value. Item: `C[C@@](O)(/C=C/[C@H]1CC=CC(=O)O1)[C@@H](C[C@@H](O)\C=C/C=C\C=C\CO)OP(=O)(O)O`
Result: 956

----------
Assay: Plasma and urine pharmacokinetics (HPLC-UV) in patients after 60-min IV infusion
Format: in vivo, human
Conditions: human, plasma, intravenous, 10 mg, patient no. 15; 10 mg m-2; day 1 course 1; two-compartment model; read-out: t1/2 (terminal) (converted)
ASSAY METRIC: half-life (h)
Respond numerically; units are h and should not be typed.

Ask: Supply half-life value. Item: `C[C@@](O)(/C=C/[C@H]1CC=CC(=O)O1)[C@@H](C[C@@H](O)\C=C/C=C\C=C\CO)OP(=O)(O)O`
Result: 1.39

Reference source: paper PMC2362650
